- SYSTEM_NAME: glucosylceramide synthase (Homo sapiens)
- Construct: Microsomes were isolated from A375 human melanoma cells; endogenous in cells
- Sequence (Q16739 whole entry): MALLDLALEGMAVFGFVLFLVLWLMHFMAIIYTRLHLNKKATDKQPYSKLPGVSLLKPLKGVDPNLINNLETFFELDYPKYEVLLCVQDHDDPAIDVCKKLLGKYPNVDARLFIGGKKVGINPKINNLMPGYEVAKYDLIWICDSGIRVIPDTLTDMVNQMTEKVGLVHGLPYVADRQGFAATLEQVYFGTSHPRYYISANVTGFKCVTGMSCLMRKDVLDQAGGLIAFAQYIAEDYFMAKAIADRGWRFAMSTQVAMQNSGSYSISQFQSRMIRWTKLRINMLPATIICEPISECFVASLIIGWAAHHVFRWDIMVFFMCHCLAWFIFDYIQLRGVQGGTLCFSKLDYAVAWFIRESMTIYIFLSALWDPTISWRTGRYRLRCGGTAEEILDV
- MEASUREMENT_DESCRIPTION: microsomal assay measuring conversion of ceramide to glucosylceramide by HPLC (GCS IC50)
- CONDITION_PARAMETERS: concentration causing 50% inhibition of glucosylceramide synthase activity
pIC50: −log10 of the molar value.
Kindly note that classification relies on pIC50 with these boundaries: group A = under 7, group B = from 7 up to 8, group C = 8 and over

Worked examples, 10 compounds total:
COMPOUND | DISCRETE_LABEL
COCCOCc1ccc(-c2nc(N3CCC(F)(C(=O)NC4(C)CCN5CCC4CC5)CC3)ncc2F)cc1 (stereo not shown) [Example 77] | group C
CC1(NC(=O)C2CCN(c3ccnc(-c4ccc(F)cc4)n3)CC2)CCN2CCC1CC2 (stereo not shown) [Example 51] | group B
COCCOc1ccc(-c2nc(C(C)(C)NC(=O)N3CCN4CCC3CC4)cs2)cc1 [Example 345] | group A
COCCCOc1ccc(-c2ccnc(N3CCC(OC)(C(=O)NC4(C)CCN5CCC4CC5)CC3)n2)cc1 (stereo not shown) [Example 101] | group C
CCC1(NC(=O)NC(C)(C)c2ccc(-c3ccc(S(=O)(=O)CCCOC)cc3)cc2)CN2CCC1CC2 (stereo not shown) [Example 243] | group B
COCCCc1ccc(-c2ccc(C3(NC(=O)NC4(C)CN5CCC4CC5)CC3)cc2)cc1 (stereo not shown) [Example 214] | group C
CC(C)(NC(=O)OC1CCN2CCC1CC2)c1ccc(-c2ccc(OCCC3COC3)cc2)cc1 (stereo not shown) [Example 195] | group C
COCCOCc1ccc(-c2ccc(C3(NC(=O)OC4CCN5CCC4CC5)CC3)cc2)cc1 (stereo not shown) [Example 204] | group B
COCCCOc1ccc(-c2ccnc(N3CCC(C(=O)NC4(C)CCN5CCC4CC5)CC3)n2)cc1 (stereo not shown) [Example 67] | group C
CC1(NC(=O)C2CN(c3cccc(-c4ccc(F)cc4)c3)C2)CCN2CCC1CC2 (stereo not shown) [Example 114] | group B

Now let's try a different one.
Class? Entry: CC(C)(NC(=O)OC1CN2CCC1CC2)c1ccc(C(=O)N2CCN(c3ccccc3)CC2)cc1 (stereo not shown) [Example 304]
group A
